substances and their reported percent inhibition of human Factor XI mRNA
System: human Factor XI mRNA
method.description: Dose-dependent inhibition in HepB3 cells, electroporation (Example 7)
Format: cell-based
experimental.parameters: 10000 nM, approx. 16 h

Observe how each entry below is paired with its result.
* 416826 (antisense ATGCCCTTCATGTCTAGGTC; 5-10-5 gapmer, wing sugar chemistry not given here, further chemistry not given here) [compound 416826] | 92%
* 417002 (antisense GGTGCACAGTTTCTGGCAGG; 2-13-5 gapmer, wing sugar chemistry not given here, further chemistry not given here) [compound 417002] | 93%
* 416850 (antisense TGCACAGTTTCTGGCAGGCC; 5-10-5 gapmer, wing sugar chemistry not given here, further chemistry not given here) [compound 416850] | 95%
* 416999 (antisense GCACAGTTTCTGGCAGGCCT; 2-13-5 gapmer, wing sugar chemistry not given here, further chemistry not given here) [compound 416999] | 97%

# input for lookup
Give its percent inhibition of human Factor XI mRNA value. Item: 416864 (antisense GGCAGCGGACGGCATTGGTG; 5-10-5 gapmer, wing sugar chemistry not given here, further chemistry not given here) [compound 416864]
87%

* * *

Listed here: items and their measured Body weight.
method.description: Tolerability in CD1 mice: body and organ weights (Example 21)
Type: in vivo
experimental.parameters: 50 mg/kg s.c. twice per week for 6 weeks, increase over PBS control weight before start of treatment
Please respond with the number in g and leave the unit unwritten.

Solved entries:
• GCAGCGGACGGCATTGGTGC (antisense; all C 5-methyl, all phosphorothioate, sugars by position not given here; MOE gapmer, 5-10-5) [ISIS 412225, 5-10-5 MOE gapmer] = 10
• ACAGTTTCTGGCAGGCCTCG (antisense; all C 5-methyl, all phosphorothioate, sugars by position not given here; MOE gapmer, 5-10-5) [ISIS 412223, 5-10-5 MOE gapmer] = 12
• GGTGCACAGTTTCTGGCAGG (all C 5-methyl, all phosphorothioate, sugars by position not given here; MOE gapmer) [ISIS 413481, 5-10-5 MOE gapmer] = 9
• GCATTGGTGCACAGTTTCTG (antisense; all C 5-methyl, all phosphorothioate, sugars by position not given here; MOE gapmer, 5-10-5) [ISIS 412224, 5-10-5 MOE gapmer] = 10

Now for another entry.
Tell me the measured Body weight of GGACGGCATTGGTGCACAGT (antisense; all C 5-methyl, all phosphorothioate, sugars by position not given here; MOE gapmer, 5-10-5) [ISIS 413482, 5-10-5 MOE gapmer] , please.
11

* * *

Test system: Factor XI protein
method.description: Cynomolgus monkeys: plasma Factor XI protein ELISA (Example 30)
Assay type: in vivo
experimental.parameters: 25 mg/kg s.c.; plasma ELISA; Day 17
In the oligonucleotide strings, read from the 5' end, every base follows the letter of its sugar. An asterisk marks phosphorothioate; unmarked linkages are phosphodiester. Other units and linkages are bracketed, terminal groups are in braces. A string of capitals states the bases alone. e = 2'-O-(2-methoxyethyl) (MOE); [5mC] = 5-methylcytosine; d = 2'-deoxy (DNA)
Listing of entries alongside the reported Inhibition of Factor XI protein relative to the PBS control.
Respond with the bare value in %.

Below, each entry is followed by its recorded Inhibition of Factor XI protein relative to the PBS control result.
• 449710 (antisense e[5mC]*eA*e[5mC]*dA*dG*dT*dT*dT*d[5mC]*dT*dG*dG*d[5mC]*eA*eG*eG) [compound 449710] = 14
• 449709 (antisense eG*e[5mC]*eA*e[5mC]*dA*dG*dT*dT*dT*d[5mC]*dT*dG*dG*d[5mC]*eA*eG*eG*e[5mC]) [compound 449709] = 35

Which Inhibition of Factor XI protein relative to the PBS control reading was recorded for the substance 416858 (antisense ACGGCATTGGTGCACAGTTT; 5-10-5 gapmer, wing sugar chemistry not given here, further chemistry not given here) [compound 416858] ?
49

* * *

Test system: human Factor XI mRNA
method.description: Dose-dependent inhibition in HepG2 cells, lipofectin (Example 5)
Format: cell-based
experimental.parameters: 9.375 nM, 16 hours
Protocol: Cells were plated at a density of 10,000 cells per well and transfected using lipofectin reagent with 2.34 nM, 4.69 nM, 9.375 nM, 18.75 nM, 37.5 nM, and 75 nM concentrations of antisense oligonucleotide, as specified in Table 11. After a treatment period of approximately 16 hours, RNA was isolated from the cells and human Factor XI mRNA levels were measured by quantitative real-time PCR. […] Factor XI mRNA levels were adjusted according to total RNA content, as measured by RIBOGREEN®. […]
Overview of reported percent inhibition of human Factor XI mRNA, relative to untreated control cells across a group of substances:

Use these answered entries as a reference point.
* 416838 (antisense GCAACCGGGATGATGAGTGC; 5-10-5 gapmer, wing sugar chemistry not given here, further chemistry not given here) [compound 416838] | 50%
* 416850 (antisense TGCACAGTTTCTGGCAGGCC; 5-10-5 gapmer, wing sugar chemistry not given here, further chemistry not given here) [compound 416850] | 49%
* 416825 (antisense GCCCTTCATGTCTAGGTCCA; 5-10-5 gapmer, wing sugar chemistry not given here, further chemistry not given here) [compound 416825] | 39%
* 417002 (antisense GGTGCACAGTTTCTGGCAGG; 2-13-5 gapmer, wing sugar chemistry not given here, further chemistry not given here) [compound 417002] | 49%
* 416925 (antisense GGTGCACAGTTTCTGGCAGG; 3-14-3 chimeric gapmer, wing sugar chemistry not given here, further chemistry not given here) [compound 416925] | 45%
* 416999 (antisense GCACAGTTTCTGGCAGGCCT; 2-13-5 gapmer, wing sugar chemistry not given here, further chemistry not given here) [compound 416999] | 42%
* 416858 (antisense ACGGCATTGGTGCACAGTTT; 5-10-5 gapmer, wing sugar chemistry not given here, further chemistry not given here) [compound 416858] | 46%

Given 416826 (antisense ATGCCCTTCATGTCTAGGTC; 5-10-5 gapmer, wing sugar chemistry not given here, further chemistry not given here) [compound 416826] , state its recorded percent inhibition of human Factor XI mRNA, relative to untreated control cells.
32%

* * *

Tested on: human Factor XI mRNA
method.description: Dose-dependent inhibition in HepG2 cells, lipofectin (Example 4)
Format: cell-based
experimental.parameters: 18.75 nM, 16 hours
In the oligonucleotide strings, read from the 5' end, every base follows the letter of its sugar. An asterisk marks phosphorothioate; unmarked linkages are phosphodiester. Other units and linkages are bracketed, terminal groups are in braces. A string of capitals states the bases alone. e = 2'-O-(2-methoxyethyl) (MOE); [5mC] = 5-methylcytosine; d = 2'-deoxy (DNA)
If the reported percent inhibition of Factor XI mRNA, relative to untreated control cells equals or exceeds 40%, assign Met. If not, assign Not met.

Please review the entries below; each comes with its answer.
• 417003 (antisense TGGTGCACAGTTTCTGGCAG; 2-13-5 gapmer, wing sugar chemistry not given here, further chemistry not given here) [compound 417003] = Met
• 416945 (antisense eA*eA*dT*dG*dT*d[5mC]*dT*dT*dT*dG*dT*dT*dG*d[5mC]*dA*eA*eG*e[5mC]*eG*e[5mC]) [compound 416945] = Met
• 413476 (antisense eT*eT*eG*eA*eG*dA*dT*dT*d[5mC]*dT*dT*dT*dG*dG*dG*e[5mC]*e[5mC]*eA*eT*eT) [compound 413476] = Met

Reported percent inhibition of Factor XI mRNA, relative to untreated control cells at or above 40%? 416922 (antisense eG*e[5mC]*eA*d[5mC]*dA*dG*dT*dT*dT*d[5mC]*dT*dG*dG*d[5mC]*dA*dG*dG*e[5mC]*e[5mC]*eT) [compound 416922]
Not met

Answer whether percent inhibition of Factor XI mRNA, relative to untreated control cells of 416908 (antisense eG*e[5mC]*eA*dA*d[5mC]*d[5mC]*dG*dG*dG*dA*dT*dG*dA*dT*dG*dA*dG*eT*eG*e[5mC]) [compound 416908] is greater than or equal to 40%.
Met

Textbook exercise: given the entry 416850 (antisense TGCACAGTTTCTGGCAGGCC; 5-10-5 gapmer, wing sugar chemistry not given here, further chemistry not given here) [compound 416850] , state whether its percent inhibition of Factor XI mRNA, relative to untreated control cells is greater than or equal to 40%.
Not met

// inclusive: percent inhibition of Factor XI mRNA, relative to untreated control cells at least 40%? input: 416825 (antisense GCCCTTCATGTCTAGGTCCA; 5-10-5 gapmer, wing sugar chemistry not given here, further chemistry not given here) [compound 416825]
Met

* * *

method.description: Tolerability in CD1 mice: hematology assays (Example 21)
Type: in vivo
experimental.parameters: 50 mg/kg s.c. twice per week for 6 weeks
Recorded measurements of Monocytes, one per entry
The answer is to be given in cells/μL; state only the numeric part.

Item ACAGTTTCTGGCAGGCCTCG (antisense; all C 5-methyl, all phosphorothioate, sugars by position not given here; MOE gapmer, 5-10-5) [ISIS 412223, 5-10-5 MOE gapmer] has what recorded Monocytes?
200

Record request: Monocytes value, item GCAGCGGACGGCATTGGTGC (antisense; all C 5-methyl, all phosphorothioate, sugars by position not given here; MOE gapmer, 5-10-5) [ISIS 412225, 5-10-5 MOE gapmer]
293

Find the recorded Monocytes belonging to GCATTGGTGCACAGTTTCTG (antisense; all C 5-methyl, all phosphorothioate, sugars by position not given here; MOE gapmer, 5-10-5) [ISIS 412224, 5-10-5 MOE gapmer] and report it.
195

Data request, read-out Monocytes, for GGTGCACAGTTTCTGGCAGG (all C 5-methyl, all phosphorothioate, sugars by position not given here; MOE gapmer) [ISIS 413481, 5-10-5 MOE gapmer]
204

Item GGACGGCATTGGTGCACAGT (antisense; all C 5-methyl, all phosphorothioate, sugars by position not given here; MOE gapmer, 5-10-5) [ISIS 413482, 5-10-5 MOE gapmer] has what recorded Monocytes?
275
